- target-entity: Tyrosine-protein kinase ABL1 (Homo sapiens)
- Sequence (P00519 whole entry): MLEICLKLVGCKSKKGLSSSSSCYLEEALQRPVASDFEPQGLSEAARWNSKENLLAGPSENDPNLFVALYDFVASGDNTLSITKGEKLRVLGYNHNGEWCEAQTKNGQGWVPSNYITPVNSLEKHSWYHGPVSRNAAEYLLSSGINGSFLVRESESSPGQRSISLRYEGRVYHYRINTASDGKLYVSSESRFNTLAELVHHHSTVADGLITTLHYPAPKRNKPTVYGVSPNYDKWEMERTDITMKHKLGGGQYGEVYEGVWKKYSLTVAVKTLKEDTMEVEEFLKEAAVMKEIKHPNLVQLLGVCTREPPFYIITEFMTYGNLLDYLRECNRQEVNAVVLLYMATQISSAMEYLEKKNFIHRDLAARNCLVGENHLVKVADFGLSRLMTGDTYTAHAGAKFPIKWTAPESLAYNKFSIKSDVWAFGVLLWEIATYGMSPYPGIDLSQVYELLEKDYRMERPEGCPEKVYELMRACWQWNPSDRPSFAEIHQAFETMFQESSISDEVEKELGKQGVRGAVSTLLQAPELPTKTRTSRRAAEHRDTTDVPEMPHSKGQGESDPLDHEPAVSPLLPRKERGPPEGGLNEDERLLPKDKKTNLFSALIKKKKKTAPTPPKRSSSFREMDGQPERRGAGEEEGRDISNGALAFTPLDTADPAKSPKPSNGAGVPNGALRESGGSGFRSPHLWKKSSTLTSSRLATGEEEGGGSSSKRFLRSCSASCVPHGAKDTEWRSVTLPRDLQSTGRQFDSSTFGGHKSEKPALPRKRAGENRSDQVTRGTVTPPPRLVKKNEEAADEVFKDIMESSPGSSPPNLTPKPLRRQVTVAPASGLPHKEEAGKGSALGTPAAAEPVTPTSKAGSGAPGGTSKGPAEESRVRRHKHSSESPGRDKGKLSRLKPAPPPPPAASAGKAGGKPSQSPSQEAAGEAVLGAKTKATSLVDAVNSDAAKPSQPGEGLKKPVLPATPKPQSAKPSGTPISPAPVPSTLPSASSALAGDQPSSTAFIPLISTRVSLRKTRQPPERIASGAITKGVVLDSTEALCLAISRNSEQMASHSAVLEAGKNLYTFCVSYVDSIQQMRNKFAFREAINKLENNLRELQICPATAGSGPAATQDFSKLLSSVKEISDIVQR
- assay: Inhibition of wild type Abl1 kinase (unknown origin)
experimental-readout: IC50 (nM)
// units = nM; emit number, no label

Consider the following illustrative entries.
> print(dat)
                         chemical.structure  unit  assay.value
1  CN1CCN(Cc2ccc(NC(=O)Nc3cc(C#Cc4cncc5nccn45)n(C)n3)cc2C(F)(F)F)CC1    nM          1.6
2  CN1CCN(Cc2ccc(NC(=O)Nc3cc(C#Cc4cnc5cccnn45)n(C)n3)cc2C(F)(F)F)CC1    nM            1

Tyrosine-protein kinase ABL1 (Homo sapiens) IC50 of "Cc1ccc(C(=O)Nc2ccc(CN3CCN(C)CC3)c(C(F)(F)F)c2)cc1C#Cc1cncc2nccn12" is 0.6

Tyrosine-protein kinase ABL1 (Homo sapiens) IC50 of "CN1CCN(Cc2ccc(NC(=O)Nc3cc(C#Cc4cnc5cnccn45)n(C)n3)cc2C(F)(F)F)CC1" is 1

Values were extracted from ChEMBL document CHEMBL2321864.
